- System: RAW-Dual
- PROTOCOL TEXT: NF-kB SEAP reporter activity, fold change vs agonist alone; cytotoxicity flag (confluency mask): not cytotoxic; higher = enhanced NF-kB activity
- EXPERIMENTAL PARAMETERS: agonist: Pam2CSK4 (TLR2/6) 0.1 ug/mL
Whole data set: some 2,900 compounds, median “NF-kB SEAP reporter activity, fold change vs agonist alone” near 0.99, cut for the highest 2% near 2.6. The sample as a whole holds a higher share of the highest values than the screen did.
ENDPOINT NAME: NF-kB SEAP reporter activity
No unit in the answer, please; the number alone is enough.

The cases that follow already have their NF-kB SEAP reporter activity on record.
1. CC(Nc1nc(NC(C)C(F)(F)F)nc(-c2cccc(Cl)n2)n1)C(F)(F)F (stereo not given) (library stock concentration (final ~1000-fold dilution): 10 mM) :: 0.998
2. CC(C)(C)c1ccc(Cn2nc(-c3ccc(Cl)cc3)cc2C(=O)NO)cc1 (library stock concentration (final ~1000-fold dilution): 10 mM) :: 0.824
3. Cc1cc(C)nc(NC(=S)N2CCN(Cc3ccc(C(F)(F)F)cc3)CC2)c1 (library stock concentration (final ~1000-fold dilution): 10 mM) :: 0.805

// query Please give the measured NF-kB SEAP reporter activity for this compound: O=C(c1cn(Cc2cncn2Cc2ccc(Br)cc2)cc1-c1cccc2ccccc12)N1CCOCC1 (library stock concentration (final ~1000-fold dilution): 10 mM)
// result 0.96

// query Please give the measured NF-kB SEAP reporter activity for this compound: CC(C)NCC(O)COc1ccc(COCCOC(C)C)cc1.O=C(O)/C=C/C(=O)O (stereo not given) (library stock concentration (final ~1000-fold dilution): 10 mM)
// result 0.984
